This collection of values is drawn from PubChem BioAssay (NCI).

- Tested on: ACHN renal
- Method description: NCI-60 one-dose screen, 48 h
- Reported conditions: 10 µM unless noted
About 83,000 compounds went through this panel and 20% of them were active in at least one assay; those are over-represented in the sample as a whole. Activity calls are given as the source filed them. How the source made its calls: active means growth percent below 10; inactive means the rest.
Labels: T = active, F = inactive

> print(dat)
                                    compound  category
 1                    Cc1cc(C)cc(OCC(=O)O)c1         F
 2            CCCCc1ccc2nc(NC(=O)OC)[nH]c2c1         F
 3          NS(=O)(=O)c1cc(=O)[nH]c(=O)[nH]1         F
 4  CC1(C)C2CCC1(C)C1(C2)OCCS1 (stereo unspecified)         F
 5  COc1ccc(C(=O)/C(=N/Nc2ccccc2)c2ccc(OC)cc2)cc1         F
 6            O=c1cc(C(F)(F)F)[nH]c(=S)[nH]1         F
 7  COC1OC(C(O)C(O)CO)C(O)C(O)C1O (stereo unspecified)         F
 8                       Cc1ccc(C)c2c1CCC2=O         F
 9  NNC(=O)N/N=C1\C(=O)N(c2nccs2)C(=O)C(=O)C1c1nc2ccccc2s1 (stereo unspecified)         F
10                        NC(CO)(CO)c1ccccc1         F
11            Cc1cc(C(=O)NN)c(C#N)c(=O)[nH]1         F
12        CCOC(=O)/C(C#N)=C\c1c[nH]c2ccccc12         F
13                    CCC(=O)Oc1ccc2ccccc2c1         F
14                                OCc1cccnc1         F
15     O=C(CCl)Nc1ccccc1SCc1cc(Cl)cc2c1OCOC2         F
16  CC(C)C1CCC(C)C(O)C1 (stereo unspecified)         F
17  COc1ccc2c(Cl)cc(NC(=O)Nc3c(C)cccc3C)nc2c1         F
18  Oc1ccc(CCC2CCNc3ccccc32)cc1 (stereo unspecified)         F
19  NC(=S)N/N=C/c1ccc(OC(=O)COc2ccc(Cl)cc2)cn1         F
20                  Nc1cc(F)ccc1[N+](=O)[O-]         F
21  O=[N+]([O-])c1ccc2[nH]c(=S)n(/C=C(/c3ccc(Cl)cc3Cl)S(=O)(=O)Cc3ccc(Cl)cc3Cl)c2c1         F
22  CC(=O)[C@@]1(O)CC[C@H]2[C@@H]3CC[C@@H]4CC(=O)CC[C@]4(C)[C@H]3[C@@H](O)C[C@@]21C         F
23  O=C(NCc1ccccc1)/C(=C/c1ccccc1)NC(=O)c1ccccc1         F
24    CC1CN(CCO)CC(C)O1 (stereo unspecified)         F
25    Cn1c(=O)c2[nH]c(CCCCC(=O)O)nc2n(C)c1=O         F
26      N#Cc1ccc(OC(=O)Nc2cc(Cl)cc(Cl)c2)cc1         T

---

Entries and their measured growth follow.
- Tested on: A498 renal
- Method description: NCI-60 one-dose screen, 48 h (100 = growth as untreated, 0 = no growth, -100 = all killed)
- Reported conditions: 10 µM unless noted
About 83,000 compounds went through this panel and 20% of them were active in at least one assay; those are over-represented in the sample as a whole. The source made the active and inactive calls. Rule for the calls: active = growth percent below 10; inactive = the rest.
Property measured: growth

> print(dat)
                                    compound  property.measured            result
 1  COc1ccc2c(Cl)cc(NC(=O)Nc3c(C)cccc3C)nc2c1             growth  36.1% (inactive)
 2  CCOP(=O)(OCC)/C(=C\N1C(=O)CC(=O)NC1=S)C(=O)OC             growth  87.7% (inactive)
 3                  Cc1ccc(S(=O)(=O)CCCl)cc1             growth  95.2% (inactive)
 4                              NNC(=O)CCCCl             growth   117% (inactive)
 5  O=[N+]([O-])c1ccc(-c2nc(N(CCO)CCO)c3ccccc3n2)o1             growth   -77.1% (active)
 6                   CCOC(=O)c1c[nH][nH]c1=O             growth  98.5% (inactive)
 7             CCN(C(=O)Nc1ccccc1Cl)c1ccccc1             growth   102% (inactive)
 8                    CC(C)Sc1ncnc2nc[nH]c12             growth  59.3% (inactive)
 9     CN(C)c1ccc2nc3ccc(=[N+](C)C)cc-3oc2c1             growth  94.8% (inactive)
10                 Cc1cccc(-[n+]2noc(N)n2)c1             growth   113% (inactive)
11           Nc1cc2c(cc1Cl)C(=O)c1ccccc1C2=O             growth   103% (inactive)
12     O=C(NCc1ccccc1)c1cccc([N+](=O)[O-])c1             growth  82.3% (inactive)
13                           COc1nc2ccccc2s1             growth   101% (inactive)
14       Cn1c(=O)c2[nH]c(CC(=O)O)nc2n(C)c1=O             growth  98.4% (inactive)
15                      CC1(C)CC(=O)C=C(N)C1             growth  85.1% (inactive)
16  CC(C)(N)CO[C@H]1C[C@H]2CC[C@@]1(C)C2(C)C             growth  81.7% (inactive)
17  O=C(O)C1CSC(c2ccccc2)N1 (stereo not drawn)             growth    81% (inactive)
18  C[C@H](CCC[C@H](C)OS(=O)(=O)c1ccccc1)OS(=O)(=O)c1ccccc1             growth   133% (inactive)
19               CCOC(=O)c1c(C)[nH]c(C)c1C=O             growth    92% (inactive)
20  C/C(=N\Nc1ccc([N+](=O)[O-])cc1[N+](=O)[O-])c1ccc(Br)cc1             growth   102% (inactive)
21                  Nc1cc(F)ccc1[N+](=O)[O-]             growth   102% (inactive)
22  COc1ccc(C2CCCCC2=O)cc1 (stereo not drawn)             growth  99.7% (inactive)
23            CCCCc1ccc2nc(NC(=O)OC)[nH]c2c1             growth   -5.63% (active)
24  CN1CCCN(C(c2ccccc2)c2ccc(Br)cc2)CC1 (stereo not drawn)             growth  74.2% (inactive)
25  NNc1ncnc2c1ncn2C1OC(CO)C(O)C1O (stereo not drawn)             growth    43% (inactive)
26              Cc1onc(-c2ccccc2Cl)c1C(=O)Cl             growth  95.9% (inactive)
27           O=C(CCl)Oc1ccc([N+](=O)[O-])cc1             growth   133% (inactive)
28                        O=S(=O)(O)c1cccnc1             growth   101% (inactive)
29              Cn1c2ccccc2c2nnc(NCCCCO)nc21             growth   105% (inactive)
30         O=C(N/N=C\c1ccc(Cl)cc1Cl)c1ccncc1             growth  95.8% (inactive)
31  COc1ccc(-c2csc(NC(=O)Nc3nc(-c4ccc(OC)cc4)cs3)n2)cc1             growth  96.3% (inactive)
32                                NNc1ncccn1             growth  91.7% (inactive)
33  CC(O)C(F)(F)C(F)(F)C(F)(F)F (stereo not drawn)             growth   120% (inactive)
34  Oc1cc(O)c2c(c1)O[C@H](c1ccc(O)c(O)c1)[C@@H](O)C2             growth   120% (inactive)
35                       CCCCOC(=O)c1ccccc1O             growth   129% (inactive)
36                O=[N+]([O-])c1c(Cl)ncnc1Cl             growth    90% (inactive)
37                        Cc1c(Cl)cccc1N=C=S             growth   117% (inactive)
38  BrCc1cccc(C[P+](c2ccccc2)(c2ccccc2)c2ccccc2)c1             growth  84.1% (inactive)
39                  Cc1[nH]c(=S)[nH]c(=O)c1C             growth   110% (inactive)
40  Cc1cccc(C)c1NC(=S)/N=C\c1c(O)[nH]c(=O)[nH]c1=O             growth   103% (inactive)
41                  Cn1c(=O)[nH]c2ccccc2c1=O             growth   129% (inactive)
42  CN(C(=S)S(=O)(=O)C12CC3CC(CC(C3)C1)C2)c1ccccc1             growth  98.6% (inactive)
43                       CN(C)c1ncnc2c1cnn2C             growth   112% (inactive)
44                    O=C1C=CC(=O)C2=C1CCCC2             growth   132% (inactive)
45  CC(C)(C)CC1(C)NC(=O)NC1=O (stereo not drawn)             growth   120% (inactive)
46                C=C(C)COc1ccc(C(C)(C)C)cc1             growth   105% (inactive)
47  CCOC(=O)/C(O)=C(\C=N\C(=S)Nc1ccc(Cl)c(Cl)c1)C(=O)OCC             growth   101% (inactive)
48  CCOC(=O)c1ccc(Nc2sc(C(=O)c3ccc(Br)cc3)c(N)c2C#N)cc1             growth   -8.46% (active)
49  S=C(NCc1ccccc1)N1CCC(CCCC2CCN(C(=S)NCc3ccccc3)CC2)CC1             growth   121% (inactive)
50      Cn1/c(=N\N=C\c2ccccc2OCCO)sc2ccccc21             growth   103% (inactive)
51             Nc1ccc2c(c1)Cc1cc(N)c(N)cc1-2             growth  98.8% (inactive)
52       O=C(c1ccccc1)c1ccc(-c2ccc(O)cc2)cc1             growth  65.1% (inactive)
53                    Cc1cc(C)cc(OCC(=O)O)c1             growth   105% (inactive)
